Test system: A549 cells
Experiment: SRB cell growth assay, si-hSMAC B-D and 2′-O-Me modified siRNAs
Type: cell-based, human
Conditions: 30 and 50 nM
Protocol: The siRNAs were synthesized by Genepharma (Suzhou, China). […] Twenty-four hours post-transfection with si-NT or si-hSMAC, cells (10,000/well) were counted and seeded in 96-well plates. […] SRB was extracted from the cells using 100 mM Tris base and absorbance at 510 nm was determined using an Infinite M1000 plate reader (Tecan, Männedorf, Switzerland). […]
d = 2'-deoxy (DNA); m = 2'-O-methyl; r = 2'-OH (RNA)
quantity: reducing cell proliferation, ranking among modified molecules

substance	result
si-hSMAC-B2: si-hSMAC-B with 2′-O-Me at sense positions 4, 9, 13, 17 (SEQ ID NO:38) and antisense 6, 12, 18 (SEQ ID NO:39) (sense GCAGAUCAGGCCUCUAUAATT; antisense UUAUAGAGGCCUGAUCUGCTT; sense: sugars from the 5' end rrrmrrrrmrrrmrrrmrrdd, backbone not given here; antisense: sugars from the 5' end rrrrrmrrrrrmrrrrrmrdd, backbone not given here)	most active
si-hSMAC-B3: si-hSMAC-B with 2′-O-Me at sense positions 6, 10, 15 (SEQ ID NO:40) and antisense 2, 9, 17 (SEQ ID NO:41) (sense GCAGAUCAGGCCUCUAUAATT; antisense UUAUAGAGGCCUGAUCUGCTT; sense: sugars from the 5' end rrrrrmrrrmrrrrmrrrrdd, backbone not given here; antisense: sugars from the 5' end rmrrrrrrmrrrrrrrmrrdd, backbone not given here)	most active

----------
For each entry below, report its Cell growth, % of control value.
Tested on: A549 cells
Assay: SRB cell growth of A549 cells treated with peptide conjugates (Table 8)
Format: cell-based, human
Details: peptide 5 μM, 48 h in serum (10%) medium or 24 h serum-free, mean±SD (n=3)
Description: A549 cells were seeded in 96-well plate (5000 cells/well). After 24 h cells were incubated with each of the examined peptides at a concentration of 5, 10, or 30 μM for 48 h in a serum (10%) containing medium or for 24 h in a serum-free medium. Then, cells were washed with PBS, fixed with 10% trichloroacetic acid, and analyzed for cell growth using the SRB method described herein above. Cell growth with no addition of a peptide was taken as a control (100% cell growth). […]
Non-standard residues stand in square brackets, D forms with d. No end group written: not given here. Dmt = Cc1cc(O)cc(C)c1C[C@H](N)C(=O)O; Orn = NCCC[C@H](N)C(=O)O

A549 cells / Cell growth, % of control / 1H13-nuCPP: peptide conjugate targeted to nucleus, SEQ ID NO:69 (SGCAFLSVKKQFEELTLGEFLKLDR[dR]RK) : value?
92 ± 0.018 % of control

A549 cells / Cell growth, % of control / TF-1G12: peptide conjugate targeted to cytosol, SEQ ID NO:76 (HAIYPRLIRKNRMALFQQLTCVLPILDNLLK; not fully specified) : value?
99 ± 0.004 % of control

A549 cells / Cell growth, % of control / mtCPP-2C18: peptide conjugate targeted to mitochondria, SEQ ID NO:74 ([dR][Dmt][Orn]FVRFITKIWHPNISSVTGAICLDILK) : value?
89 ± 0.005 % of control

A549 cells / Cell growth, % of control / nuCPP-1G12: peptide conjugate targeted to nucleus, SEQ ID NO:71 (R[dR]RKLIRKNRMALFQQLTCVLPILDNLLK) : value?
96 ± 0.012 % of control

A549 cells / Cell growth, % of control / 1H13-mtCPP-NH2: peptide conjugate targeted to mitochondria, SEQ ID NO:73 (SGCAFLSVKKQFEELTLGEFLKLD[dR][Dmt][Orn]F-NH2) : value?
85 ± 0.022 % of control

A549 cells / Cell growth, % of control / 1G12-nuCPP: peptide conjugate targeted to nucleus, SEQ ID NO:70 (LIRKNRMALFQQLTCVLPILDNLLKR[dR]RK) : value?
109 ± 0.013 % of control

A549 cells / Cell growth, % of control / ANT-2C18 (MRQIKIWFQNRRMKWKVRFITKIWHPNISSVTGAICLDILK) : value?
127 ± 0.006 % of control

----------
system: A549 cells; test: SRB cell growth of A549 cells treated with peptide conjugates (Table 8); type: cell-based, human; conditions: peptide 30 μM, 48 h in serum (10%) medium or 24 h serum-free, mean±SD (n=3)
Non-standard residues stand in square brackets, D forms with d. No end group written: not given here. Dmt = Cc1cc(O)cc(C)c1C[C@H](N)C(=O)O; Orn = NCCC[C@H](N)C(=O)O
quantity: Cell growth, % of control

Which measured Cell growth, % of control value corresponds to 1G12-nuCPP: peptide conjugate targeted to nucleus, SEQ ID NO:70 (LIRKNRMALFQQLTCVLPILDNLLKR[dR]RK) ?
39 ± 0.013 % of control

Which measured Cell growth, % of control value corresponds to mtCPP-2C18: peptide conjugate targeted to mitochondria, SEQ ID NO:74 ([dR][Dmt][Orn]FVRFITKIWHPNISSVTGAICLDILK) ?
59 ± 0.004 % of control

Which measured Cell growth, % of control value corresponds to ANT-2C18 (MRQIKIWFQNRRMKWKVRFITKIWHPNISSVTGAICLDILK) ?
97 ± 0.011 % of control

Which measured Cell growth, % of control value corresponds to TF-1G12: peptide conjugate targeted to cytosol, SEQ ID NO:76 (HAIYPRLIRKNRMALFQQLTCVLPILDNLLK; not fully specified) ?
99 ± 0.005 % of control

Which measured Cell growth, % of control value corresponds to 1H13-mtCPP-NH2: peptide conjugate targeted to mitochondria, SEQ ID NO:73 (SGCAFLSVKKQFEELTLGEFLKLD[dR][Dmt][Orn]F-NH2) ?
49 ± 0.014 % of control

Which measured Cell growth, % of control value corresponds to nuCPP-1G12: peptide conjugate targeted to nucleus, SEQ ID NO:71 (R[dR]RKLIRKNRMALFQQLTCVLPILDNLLK) ?
66 ± 0.009 % of control

Which measured Cell growth, % of control value corresponds to 1H13-nuCPP: peptide conjugate targeted to nucleus, SEQ ID NO:69 (SGCAFLSVKKQFEELTLGEFLKLDR[dR]RK) ?
30 ± 0.009 % of control
